Assay: Primary qHTS for delayed death inhibitors of the malarial parasite plastid, 96 hour incubation
Conditions: P. falciparum luciferase reporter growth; series mostly up to 28.7 µM
About 22,000 (6.9%) of roughly 320,000 compounds were called active. Another 27% or so got no clear call; they are omitted. The call rests on the fitted dose curve; in most records, active means well fitted inhibition curve with a large enough effect; inconclusive means small, poorly fitted or top-dose-only effect, or another doubt; inactive means no such curve, though single readings can be large or run the other way. The sample holds actives, similar compounds and a random draw of the others, so the mix is not that of the screen.
The reply should be one of these categories: 1.0 for active, 0.0 for inactive

Task item: Dear colleague, could you share the recorded outcome for CN(C)S(=O)(=O)c1cccc(-c2nn(-c3ccccc3)cc2/C=C2\SC(=S)N(CC(=O)O)C2=O)c1 when you have a moment?
Reply: 0.0

Task item: Assay result, entry CC1CN(C2CCCCC2)c2nc3c(c(=O)n(C)c(=O)n3C)n2C1 (stereo not given) — outcome?
Reply: 0.0

Task item: Tell me the assay call for Cc1cccc(N2CC(C)Cn3c2nc2c3c(=O)n(CC(=O)OCc3ccccc3)c(=O)n2C)c1 (stereo not given) please.
Reply: 1.0

Task item: Could you check what this test reported for O=C(c1ccc(Cl)cc1)N1N=C(c2ccccn2)CC1(O)C(F)(F)F (stereo not given) ?
Reply: 1.0

Task item: Kindly provide the recorded test outcome for the following compound: CC(=O)Nc1ccc(NC(=O)CSc2ncnc3c2cnn3Cc2ccccc2)cc1
Reply: 0.0

Task item: Hi team, can someone confirm the assay call for COc1ccc(C(=O)Oc2ccc(-c3nnco3)cc2)cc1S(=O)(=O)N1CCOCC1 ?
Reply: 0.0

Task item: Which outcome did this test record for the compound COC(=O)C1(O)CC(C(C)C)=NN1C(=O)c1ccc(Cl)cc1 (stereo not given) ?
Reply: 0.0

Task item: Kindly provide the recorded test outcome for the following compound: Cc1cccc(Cn2c(N3CCN(c4ccccc4)CC3)nc3c2c(=O)n(C)c(=O)n3C)c1
Reply: 0.0

Task item: Status in this test for COc1cccc(C(=O)n2ccc(-c3cccs3)n2)c1 ?
Reply: 0.0

Task item: GET /call?item= CC1(C)CC(=O)C=C(c2ccc(Cl)c(C(F)(F)F)c2)C1 returns the recorded outcome of this test.
Reply: 1.0

###

Test: Primary qHTS for delayed death inhibitors of the malarial parasite plastid, 96 hour incubation
Settings: P. falciparum luciferase reporter growth; series mostly up to 28.7 µM
About 22,000 (6.9%) of roughly 320,000 compounds were called active. Another 27% or so got no clear call; they are omitted. This is one part of a sample in which actives are shown more often than they occur.
reported property: outcome

Some compounds with recorded outcome:
1) O=C(/C=C/c1cccc(C(F)(F)F)c1)N1CCN(c2ccccn2)CC1 :: inactive
2) CCOC(=O)c1c(C)[nH]c(C(=O)OCC(=O)c2ccc(OC)cc2OC)c1C :: inactive
3) CCN(CCn1cccn1)C(=O)CC1C(=O)NCCN1Cc1cccc(OC)c1OC (stereo not given) :: inactive
4) COCCCNc1nc2ccccc2nc1NS(=O)(=O)c1ccc(F)cc1 :: inactive
5) CCOC(=O)N1CCN(c2c(NCCN3CCN(c4ccccc4F)CC3)c(=O)c2=O)CC1 :: inactive

API: the following record is the query input.
Task item: Please list outcome recorded for the compound CC(=O)Nc1ccc(C(=O)N(C2=NC(C)CS2)c2ccc(Cl)cc2)cc1 (stereo not given)
Reply: inactive

###

Test: Primary qHTS for delayed death inhibitors of the malarial parasite plastid, 96 hour incubation
Settings: P. falciparum luciferase reporter growth; series mostly up to 28.7 µM
Among all 320,000 compounds or so, about 22,000 (6.9%) were called active. Another 27% or so got no clear call; they are omitted. Calls follow the shape of the dose curve; as a rule, active = well fitted inhibition curve with a large enough effect; inconclusive = small, poorly fitted or top-dose-only effect, or another doubt; inactive = no such curve, though single readings can be large or run the other way. The sample holds actives, similar compounds and a random draw of the others, so the mix is not that of the screen.
Give your call using only these classes: label 1 (active), label 0 (inactive)

Task item: Test call, this molecule: Cc1cc(NC(=O)C(C)N2C(=O)c3ccccc3S2(=O)=O)no1 (stereo not given)
Reply: label 0

Task item: Hi, sorry to bother you, what did the test record for Cc1ccc(-n2c(C)cc(/C=C(\C#N)C(=O)NCC3CCCO3)c2C)cc1 (stereo not given) ?
Reply: label 1

Task item: Per the assay record, what outcome was assigned to Cc1ccc(-c2noc(CCC(=O)Nc3ccccc3N3CCN(C)CC3)n2)cc1 ?
Reply: label 0

Task item: Please state the recorded outcome for this molecule: Cc1ccc(C(=O)N/C(=C/c2cccs2)C(=O)NCC2CCCO2)cc1 (stereo not given)
Reply: label 0

Task item: Please indicate how the test categorized CCOC(=O)c1c(NC(=O)CN2C(=O)NC3(CCC(C)CC3)C2=O)sc(C)c1CC (stereo not given) .
Reply: label 0

###

Experiment: Primary qHTS for delayed death inhibitors of the malarial parasite plastid, 96 hour incubation
Settings: P. falciparum luciferase reporter growth; series mostly up to 28.7 µM
About 22,000 (6.9%) of roughly 320,000 compounds were called active. About 27% were inconclusive and are not listed. The call rests on the fitted dose curve; in most records, active means well fitted inhibition curve with a large enough effect; inconclusive means small, poorly fitted or top-dose-only effect, or another doubt; inactive means no such curve, though single readings can be large or run the other way. For the sample, actives were picked, then their nearest neighbours and some compounds at random.
Select the correct class. Options are active, inactive and nothing else.

Task item: For COc1ccc(CNS(=O)(=O)c2ccc(-c3cnc(C4CC4)o3)cc2)cc1 , which call appears in the assay record?
Reply: active

Task item: What was the test verdict on COc1ccccc1OCc1nnc(SCC(N)=O)n1-c1ccccc1 ?
Reply: inactive

Task item: For this compound, state the assay outcome: O=C(NCc1cccc(Cl)c1)C1CCC(=O)N(C2CC2)C1 (stereo not drawn)
Reply: inactive

Task item: Entry Cc1cccc(C)c1NC(=S)N1CCCCCC1 : call = ?
Reply: inactive

Task item: Hi, sorry to bother you, what did the test record for COc1ccccc1NC(=O)CSc1nnc(Cn2nnc(-c3ccccc3)n2)n1-c1ccccc1 ?
Reply: active

Task item: Please let me know the test result on file for Cc1ccccc1C(OCC(O)CN1CCCCC1CCO)c1ccccc1 (stereo not drawn) .
Reply: inactive

Task item: Identify the outcome logged in this assay for the compound shown: O=C(CNC(=O)c1ccc(Br)o1)NCC1CCCO1 (stereo not drawn)
Reply: inactive

Task item: Assay result, entry C=CCOc1ccc(/C=C/C(=O)OC(C)C(=O)Nc2ccc(NC(C)=O)cc2)cc1 (stereo not drawn) — outcome?
Reply: inactive

Task item: Name the outcome recorded for COc1ccc(CNS(=O)(=O)c2ccc(NC(=O)N3CCCCC3)cc2)cc1 in the assay.
Reply: inactive

Task item: I would be grateful if you could indicate the recorded call for CC(=O)Nc1ccc(NC(=O)COc2ccc(-c3ccccc3)cc2)cc1 .
Reply: inactive

Task item: Short answer needed: outcome of this test for COc1cccc(CN(C)CC(=O)Nc2sc3c(c2C#N)CCC3)c1 ?
Reply: inactive

Task item: Identify the outcome logged in this assay for the compound shown: O=C(NCc1ccccc1)C1CCN(C(=O)Cc2ccccc2)CC1
Reply: inactive

Task item: What is the recorded call for this compound in the test? O=C(NNc1ccccc1Cl)C(O)(c1cccc(C(F)(F)F)c1)c1cccc(C(F)(F)F)c1
Reply: active

Task item: What call does the record list for CC(CC(=O)Nc1cc(C(F)(F)F)ccc1Cl)c1ccccc1 (stereo not drawn) ?
Reply: inactive

Task item: Would you mind telling me which call this test gave O=S(=O)(c1ccc(SCc2ccc(Br)cc2)nc1)N1CCOCC1 ?
Reply: inactive

Task item: I'd appreciate the recorded outcome for CS(=O)(=O)N(CC(=O)Nc1ccc(F)cc1)C1CCCCC1 from this test.
Reply: inactive

Task item: Kindly provide the recorded test outcome for the following compound: NC1=NN(c2cccc(C(=O)O)c2)C(=O)C1
Reply: active

Task item: Recorded call for O=C(O)c1cccc(S(=O)(=O)N2CC=C(c3ccccc3)CC2)c1 ?
Reply: inactive

Task item: I'd appreciate the recorded outcome for CCOC(=O)c1c(C)[nH]c(C(=O)NCCN2CCOCC2)c1C from this test.
Reply: inactive

Task item: // return assay outcome for COc1cccc(CN(C)CC(O)COC(c2ccccc2)c2ccccc2C)c1 (stereo not drawn)
Reply: active

Task item: Hi team, can someone confirm the assay call for O=C(NCc1cccs1)c1ccc(Br)o1 ?
Reply: inactive

Task item: Write down the call the test reported for this compound. Item: CCOc1ccc(-n2c(SCC(=O)OC)nc3sc4c(c3c2=O)CCN(C)C4)cc1
Reply: active

Task item: Entry COc1ccc(-n2c(=S)[nH]c3sc4c(c3c2=O)CCc2ccccc2-4)cc1 : call = ?
Reply: inactive

###

Test: Primary qHTS for delayed death inhibitors of the malarial parasite plastid, 96 hour incubation
Details: P. falciparum luciferase reporter growth; series mostly up to 28.7 µM
Hit rate of the full screen: of about 320,000 compounds, about 22,000 (6.9%) were called active. Roughly 27% stayed inconclusive and do not appear here. Calls come from the whole dose curve; as a rule, active = well fitted inhibition curve with a large enough effect; inconclusive = small, poorly fitted or top-dose-only effect, or another doubt; inactive = no such curve, though single readings can be large or run the other way. For the sample, actives were picked, then their nearest neighbours and some compounds at random.
// one of TRUE for active, FALSE for inactive, no free text

Task item: Given CCOc1ccc2[nH]c3nc(SCC(=O)NC4CCCC4)nnc3c2c1 , state the outcome it received in this test.
Reply: FALSE

Task item: Write down the call the test reported for this compound. Item: O=C(Cn1nc([N+](=O)[O-])nc1Br)NC1CCCCC1
Reply: FALSE

Task item: Kindly provide the recorded test outcome for the following compound: COc1ccccc1C(=O)COC(=O)CNS(=O)(=O)c1ccc(NC(C)=O)cc1
Reply: FALSE

Task item: Please indicate how the test categorized CN(CC(=O)Nc1ccc(Cl)cc1)C(=O)c1ccc(COc2ccccc2)cc1 .
Reply: FALSE

Task item: How did this test come out for Cc1c(NC(=O)c2c([N+](=O)[O-])cnn2C)c(=O)n(-c2ccccc2)n1C ?
Reply: FALSE

Task item: Write down the call the test reported for this compound. Item: CC1CCCC(C)N1C(=O)CSc1nnnn1C1CCCC1 (configuration not stated)
Reply: FALSE

Task item: Would you mind telling me which call this test gave COCCN1CCN(C(=O)c2cc(COc3ccc(F)cc3Cl)on2)CC1 ?
Reply: FALSE

Task item: Returns: the outcome recorded for Cc1c(NC(=O)Nc2cccc([N+](=O)[O-])c2)c(=O)n(-c2ccccc2)n1C in this assay.
Reply: TRUE

Task item: Answer briefly: the call reported for CCN(CC)c1ccc(S(=O)(=O)N2CCCCC2)cc1NC(=O)C1=COCCO1 in this assay.
Reply: TRUE

Task item: Dear all, I need the recorded test outcome for O=C(c1cc(COc2ccc(F)cc2F)on1)N1CCOCC1 , thank you.
Reply: FALSE

Task item: I'd appreciate the recorded outcome for CN1C(=O)[C@H]2[C@@H](C3CC3)N3C(=O)CN(Cc4ccccc4)C(=O)[C@@]3(C)[C@H]2C1=O from this test.
Reply: FALSE

Task item: Recorded test outcome, item Cc1c2cnn(CC(=O)NCCCN3CC(C)CC(C)C3)c(=O)c2c(C)n1Cc1ccc(Cl)cc1 (configuration not stated)
Reply: FALSE

Task item: Entry Cc1nc2ccccn2c(=O)c1NC(=O)c1cccs1 : call = ?
Reply: FALSE

Task item: So what was the verdict on Cc1ccc(-n2ncc3c(=O)n(-c4ccc(C)c(C)c4)c(-c4ccco4)nc32)cc1 in this test?
Reply: TRUE

Task item: Hi, do you know how CC(=O)Nc1ccc(NC(=O)CC2CCCC2)cc1 came out in this test?
Reply: FALSE

Task item: GET /call?item= CS(=O)(=O)N1CCN(CC(=O)NC2CCCC2)CC1 returns the recorded outcome of this test.
Reply: FALSE

Task item: Outcome logged for COCCNC(=O)COc1ccccc1C in this assay:
Reply: FALSE

Task item: // outcome(item) with item = O=c1c2ccccc2nc(-c2ccco2)n1-c1ccc(Br)cn1
Reply: FALSE

Task item: // param item: CCCOc1ccc(C(=O)CCC(=O)OC(C)C(=O)Nc2ccc(NC(C)=O)cc2)cc1 (configuration not stated) ; yields the recorded call
Reply: FALSE

Task item: How was Cc1c(NC(=S)Nc2ccccc2)c(=O)n(-c2ccccc2)n1C classified in this test?
Reply: FALSE

Task item: In this assay, the call recorded for Cc1ccc(S(=O)(=O)N2CCCCC2)cc1NC(=O)c1cccnc1 was what?
Reply: FALSE

Task item: How did this test come out for O=C(CSc1nnnn1C1CCCC1)N1CCCCC1 ?
Reply: TRUE
